B1: library; a variant is named by its letters at N, in order (parent)
chain: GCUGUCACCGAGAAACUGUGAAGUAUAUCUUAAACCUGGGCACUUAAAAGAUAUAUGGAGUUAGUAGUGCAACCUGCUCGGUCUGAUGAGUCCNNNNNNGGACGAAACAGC

- Variants of: B1
- Test protocol: normalized RNA/DNA level with ligand (relative to sTRSVctl = 100) (log10 (% of sTRSVctl)); HEK293T; ligand: cyclic di-GMP (c-di-GMP-II aptamer); ligand concentration (+) RNA-Seq: 1 mM; higher = less ribozyme self-cleavage, higher mRNA level
- Condition notes: reporter: mCherry (pCS4076), ligand present: yes
Each record here notes measured normalized RNA/DNA level with ligand (log10).

Observe how each entry below is paired with its result.
[
  {
    "Variant descriptor": "ACGGUU",
    "Value reported": 1.4
  },
  {
    "Variant descriptor": "AUGGAU",
    "Value reported": 1.67
  },
  {
    "Variant descriptor": "UGGGAA",
    "Value reported": 1.77
  },
  {
    "Variant descriptor": "UGAAUU",
    "Value reported": 1.84
  },
  {
    "Variant descriptor": "AAUCUA",
    "Value reported": 1.75
  }
]

`UAUUUA` has a reported normalized RNA/DNA level with ligand (log10) of 1.84

`GACUUC` has a reported normalized RNA/DNA level with ligand (log10) of 1.91

`CUUGGU` has a reported normalized RNA/DNA level with ligand (log10) of 1.84

`GUGCUA` has a reported normalized RNA/DNA level with ligand (log10) of 1.8

`AGAGUA` has a reported normalized RNA/DNA level with ligand (log10) of 1.73

`CACGUA` has a reported normalized RNA/DNA level with ligand (log10) of 1.7

`CGACGU` has a reported normalized RNA/DNA level with ligand (log10) of 1.84

`AGACGC` has a reported normalized RNA/DNA level with ligand (log10) of 1.81

`GUGCUU` has a reported normalized RNA/DNA level with ligand (log10) of 1.84

`GGGAGU` has a reported normalized RNA/DNA level with ligand (log10) of 1.72

`AUCACU` has a reported normalized RNA/DNA level with ligand (log10) of 1.88

`UAGGGG` has a reported normalized RNA/DNA level with ligand (log10) of 1.72

`AGCUUC` has a reported normalized RNA/DNA level with ligand (log10) of 1.9

`CGUUUU` has a reported normalized RNA/DNA level with ligand (log10) of 1.61

`ACGGAU` has a reported normalized RNA/DNA level with ligand (log10) of 1.4

`UGAGAA` has a reported normalized RNA/DNA level with ligand (log10) of 1.81

`ACCCGG` has a reported normalized RNA/DNA level with ligand (log10) of 1.86

`GCUAGC` has a reported normalized RNA/DNA level with ligand (log10) of 1.8

`AAAGGU` has a reported normalized RNA/DNA level with ligand (log10) of 1.71

`AUUGCU` has a reported normalized RNA/DNA level with ligand (log10) of 1.88

`UCCUCG` has a reported normalized RNA/DNA level with ligand (log10) of 1.91

`CGCACA` has a reported normalized RNA/DNA level with ligand (log10) of 1.59

`AAGUCC` has a reported normalized RNA/DNA level with ligand (log10) of 1.84

`UGACAG` has a reported normalized RNA/DNA level with ligand (log10) of 1.82

`UCCCGC` has a reported normalized RNA/DNA level with ligand (log10) of 1.91

`GGGUAA` has a reported normalized RNA/DNA level with ligand (log10) of 1.7

`ACGAGA` has a reported normalized RNA/DNA level with ligand (log10) of 1.45

`CGACAA` has a reported normalized RNA/DNA level with ligand (log10) of 1.54

`CUACGA` has a reported normalized RNA/DNA level with ligand (log10) of 1.79
